Attribution: ChEMBL document CHEMBL1124194

organism: Cavia porcellus; experiment: Tested for antimuscarinic potency on guinea pig heart force; format: ADME, organism-based
RECORDED METRIC: pA2
Numbers only.

Some compounds with known pA2 results, for comparison:
C[N+](C)(C)C[C@@H]1CS[C@](c2ccccc2)(C2CCCCC2)O1.[I-] (stereo in doubt; (-)2) :: 8.07
C[N+](C)(C)C[C@@H]1CS[C@](c2ccccc2)(C2CCCCC2)O1.[I-] (stereo in doubt; (+)-2) :: 8.1
C[N+](C)(C)C[C@@H]1CS[C@@](c2ccccc2)(C2CCCCC2)O1.[I-] (stereo in doubt; (-)4) :: 8.16
C[N+](C)(C)C[C@@H]1CS[C@@](c2ccccc2)(C2CCCCC2)O1.[I-] (stereo in doubt; (+)4) :: 8.47

# context switch: different compound, same pA2
Fill in pA2 for record C[N+](C)(C)C[C@@H]1CS[C@@](c2ccccc2)(C2CCCCC2)O1.[I-] (racemic)
8.13

====

organism: Cavia porcellus; assay: Tested for antimuscarinic potency on guinea pig ileum; assay type: ADME, organism-based
Consider the following compounds; for each one, report its pA2.
Give bare numbers.

C[N+](C)(C)C[C@@H]1CS[C@@](c2ccccc2)(C2CCCCC2)O1.[I-] (stereo in doubt; (-)4) :: 7.86

Hi! Can you tell me pA2 for each of these compounds?
1. C[N+](C)(C)C[C@@H]1CS[C@](c2ccccc2)(C2CCCCC2)O1.[I-] (racemic)
2. C[N+](C)(C)C[C@@H]1CS[C@@](c2ccccc2)(C2CCCCC2)O1.[I-] (stereo in doubt; (+)4)
3. C[N+](C)(C)C[C@@H]1CS[C@](c2ccccc2)(C2CCCCC2)O1.[I-] (stereo in doubt; (+)-2)
4. C[N+](C)(C)C[C@@H]1CS[C@](c2ccccc2)(C2CCCCC2)O1.[I-] (stereo in doubt; (-)2)
5. C[N+](C)(C)C[C@@H]1CS[C@@](c2ccccc2)(C2CCCCC2)O1.[I-] (racemic)

[8.26, 8.79, 8.57, 7.86, 8.38]
